assay: Study A dose-escalation protocol: 17-AAG pharmacokinetics in plasma (HPLC); format: in vivo; details: female, dog, 200 mg/m2; Study A, dogs, plasma, AUC0–8h, single IV dose 200 mg/m^2, mean ± SD
Assay readout: AUC (ng·h/mL)
Numbers only, in ng·h/mL.

Using known records, supply AUC for `C=CCNC1=C2C[C@@H](C)C[C@H](OC)[C@H](O)[C@@H](C)/C=C(\C)[C@H](OC(N)=O)[C@@H](OC)/C=C\C=C(/C)C(=O)NC(=CC1=O)C2=O`
11900

====

test: Study A dose-escalation protocol: 17-AAG pharmacokinetics in plasma (HPLC); type: in vivo; details: female, dog, 150 mg/m2; Study A, dogs, plasma, single IV dose 150 mg/m^2, mean ± SD; read-out: t½ (converted)
Assay readout: half-life

Using known records, supply half-life for C=CCNC1=C2C[C@@H](C)C[C@H](OC)[C@H](O)[C@@H](C)/C=C(\C)[C@H](OC(N)=O)[C@@H](OC)/C=C\C=C(/C)C(=O)NC(=CC1=O)C2=O [17-AAG, 17-(allylamino)-17-demethoxygeldanamycin]
35.4 min

====

test: Study B: 17-AAG pharmacokinetics in subcutaneous interstitial fluid (tissue cages, HPLC); assay type: in vivo; settings: both sexes, dog, subcutaneous interstitial fluid, iv, 150 mg/m2, Study B, dogs, subcutaneous interstitial fluid, 3rd administration of 150 mg/m^2 IV, mean ± SD; read-out: AUC 0–4 h
Assay readout: AUC(0-t) (ng·h/mL)
Answers are plain numbers, in ng·h/mL.

Using known records, supply AUC(0-t) for C=CCNC1=C2C[C@@H](C)C[C@H](OC)[C@H](O)[C@@H](C)/C=C(\C)[C@H](OC(N)=O)[C@@H](OC)/C=C\C=C(/C)C(=O)NC(=CC1=O)C2=O [17-AAG, 17-(allylamino)-17-demethoxygeldanamycin]
895

====

experiment: Study B: 17-AAG pharmacokinetics in subcutaneous interstitial fluid (tissue cages, HPLC); type: in vivo; settings: both sexes, dog, subcutaneous interstitial fluid, iv, 150 mg/m2, Study B, dogs, subcutaneous interstitial fluid, 3rd administration of 150 mg/m^2 IV, mean ± SD; read-out: AUC 0–24 h
Assay readout: AUC(0-t) (ng·h/mL)
Numbers only, in ng·h/mL.

Using known records, supply AUC(0-t) for `C=CCNC1=C2C[C@@H](C)C[C@H](OC)[C@H](O)[C@@H](C)/C=C(\C)[C@H](OC(N)=O)[C@@H](OC)/C=C\C=C(/C)C(=O)NC(=CC1=O)C2=O`
3500

====

test: Study B: 17-AAG pharmacokinetics in subcutaneous interstitial fluid (tissue cages, HPLC); format: in vivo; conditions: both sexes, dog, subcutaneous interstitial fluid, iv, 150 mg/m2, Study B, dogs, 3rd administration of 150 mg/m^2 IV, mean ± SD
Assay readout: Cmax (ng/mL)
One number for each entry, in ng/mL.

Using known records, supply Cmax for C=CCNC1=C2C[C@@H](C)C[C@H](OC)[C@H](O)[C@@H](C)/C=C(\C)[C@H](OC(N)=O)[C@@H](OC)/C=C\C=C(/C)C(=O)NC(=CC1=O)C2=O [17-AAG, 17-(allylamino)-17-demethoxygeldanamycin]
726

====

assay: Study B: 17-AAG pharmacokinetics in subcutaneous interstitial fluid (tissue cages, HPLC); assay type: in vivo; conditions: both sexes, dog, subcutaneous interstitial fluid, iv, 150 mg/m2, Study B, dogs, subcutaneous interstitial fluid, 1st of three IV administrations of 150 mg/m^2 at 48 h intervals, mean ± SD; read-out: t ½ (converted)
Assay readout: half-life (min)
Answers are plain numbers, in min.

Using known records, supply half-life for C=CCNC1=C2C[C@@H](C)C[C@H](OC)[C@H](O)[C@@H](C)/C=C(\C)[C@H](OC(N)=O)[C@@H](OC)/C=C\C=C(/C)C(=O)NC(=CC1=O)C2=O [17-AAG, 17-(allylamino)-17-demethoxygeldanamycin]
2280

Sourced from paper PMC11206245
